Hello, the source for this data is ChEMBL document CHEMBL1143576, in case you need it.

# System: TSU
# assay_remarks: Antiproliferative activity against prostate cancer TSU-Pr1 cell line using sulforhodamine B(SRB) assay
# Assay type: functional, cell-based
# test_parameters: Homo sapiens
metric: IC50 (µM)
Reply with just the number (in µM).

Challenge: Please report the recorded IC50 for CCCCCCCCCCCCCCCCCCNC(=O)[C@H]1CSC(c2ccc(F)cc2)N1 (some centres undefined) .
Response given: 5.4

Challenge: Now give it for CCCCCCCCCCCCCCCCCCNC(=O)[C@H]1CSC(c2ccc(N(C)C)cc2)N1 (some centres undefined) too.
Response given: 3

Challenge: Now give it for CCCCCCCCCCCCCCCCCCNC(=O)[C@H]1CSC(c2cccnc2)N1 (some centres undefined) too.
Response given: 7.8

Challenge: Now give it for CCCCCCCCCCCCCCCCCCNC(=O)[C@H]1CSC(c2ccc(NC(C)=O)cc2)N1 (some centres undefined) too.
Response given: 0.94

Challenge: Now give it for CCCCCCCCCCCCCCCCCCNC(=O)[C@H]1CSC(c2ccc(F)c(Br)c2)N1 (some centres undefined) too.
Response given: 14

Challenge: Now give it for CCCCCCCCCCCCCCCCCCNC(=O)[C@H]1CSC(c2c[nH]c3ccccc23)N1 (some centres undefined) too.
Response given: 4.4

Challenge: Now give it for CCCCCCCCCCCCCCCCCCNC(=O)[C@H]1CSC(c2ccccc2)N1.Cl (some centres undefined) too.
Response given: 5

Challenge: Now give it for CCCCCCCCCCCCCCCCCCNC(=O)[C@H]1CSC(c2c(Cl)cccc2Cl)N1 (some centres undefined) too.
Response given: 20

Challenge: Now give it for CCCCCCCCCCCCCCCCCCNC(=O)[C@H]1CSC(c2cccc(O)c2)N1 (some centres undefined) too.
Response given: 4

Challenge: Now give it for CCCCCCCCCCCCCCCCCCNC(=O)[C@H]1CSC(c2ccc([N+](=O)[O-])cc2)N1 (some centres undefined) too.
Response given: 15.9
